- procedure_text: chemical genetic growth profiling, strain panel (AID 1159580);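 also: tested at 20 µM; growth read once vehicle control cultures reached saturation at 30 °C; 1 = growth at the plate median or of vehicle wells; lower values mean less growth of the strain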
- applied_conditions: S. cerevisiae deletion strains, growth OD, locus YJL166W, strain qcr8, active compounds read low
The campaign covered roughly 5,500 compounds. About 2,000 (36%) were called active. Inconclusive results (about 18%) are left out. Some of the results follow.
Listed here: items and their measured normalized growth.
observation_type: normalized growth

compound=CC1(C)O[C@H]2[C@H](O)C[C@](O)(C(N)=O)C[C@H]2O1 reported_value=1.02
compound=O=C1C=C2C=C[C@@H]3C[C@@]2(O1)[C@H]1CCCCN31 reported_value=0.961
compound="O=C1CC2OCC=C3CN4CC[C@]56c7ccccc7N1C5[C@H]2[C@H]3CC46 (stereo partly specified)" reported_value=1.02
compound=C[C@H]1CC[C@@H](C(C)(C)O)CC2=C1CC[C@@H]2C reported_value=0.948
compound=COC(=O)C[C@H]1C(C)(C)C(=O)[C@@H]2CC3=C(CC[C@]4(C)C3=CC(=O)O[C@H]4c3ccoc3)[C@@]1(C)C2=O reported_value=0.973
compound=CC(=O)N[C@@H](CS)C(=O)O reported_value=0.985

====

- procedure_text: chemical genetic growth profiling, strain panel (AID 1159580)
- applied_conditions: S. cerevisiae deletion strains, growth OD, locus YGL086W, strain mad1, active compounds read low
Hit rate of the full screen: of about 5,500 compounds, about 2,000 (36%) were called active. Not shown: some 18% with an inconclusive outcome. The list shows a part of the results.
Listed here: items and their measured normalized growth.
observation_type: normalized growth

molecule=COc1c2ccoc2c(OC)c2oc(=O)ccc12 reported_value=0.969
molecule=O=c1[nH]oc2c1CCNC2 reported_value=0.963
molecule=CN1C(C(=O)Nc2ccccn2)=C(O)c2ccccc2S1(=O)=O reported_value=0.95
molecule=O=C1NC(=O)C(=O)C(=O)N1 reported_value=1.01
molecule="CC1OC1P(=O)(O)O (stereo not drawn)" reported_value=1
molecule=COc1c(OC)c2occc2c2oc(=O)ccc12 reported_value=0.937
molecule="C#CCCCCCCCCCCCC(O)CC(O)COC(C)=O (stereo not drawn)" reported_value=0.91
molecule=CCN(CC)C(=O)c1cccc(C)c1 reported_value=1
molecule=CC(C)NC[C@H](O)COc1cccc2ccccc12 reported_value=0.994
molecule=CC(=O)OCC(COC(C)=O)OC(C)=O reported_value=1
molecule="CC(C)C(C)/C=C/C(C)C1CCC2C3=CC=C4CC(O)CCC4(C)C3CCC21C (stereo not drawn)" reported_value=0.962
molecule="COc1cc2c(cc1OC)C1Cc3ccc(OC)c(OC)c3CN1CC2 (stereo not drawn)" reported_value=0.955
molecule=CCNC(=O)CC[C@H](N)C(=O)O reported_value=1

====

Listed here: items and their measured normalized growth.
- procedure_text: chemical genetic growth profiling, strain panel (AID 1159580)
- applied_conditions: S. cerevisiae deletion strains, growth OD, locus YKL068W, active compounds read low
Among all 5,500 compounds or so, about 2,000 (36%) were called active. About 18% were inconclusive and are not listed. Some of the results follow.
observation_type: normalized growth

compound=CCCCOC(=O)c1ccccc1C(=O)OCCCC observation_type="normalized growth" reported_value=0.977
compound=Oc1ccc(Cl)cc1 observation_type="normalized growth" reported_value=0.985
compound=COc1cc(-c2coc3cc(OCc4ccccc4)c(OC)c(O)c3c2=O)cc(O)c1OC observation_type="normalized growth" reported_value=1.02
compound="CC1(C)OC(=O)C=CC2(C)C1CC(O)C1(C)C2CCC2(C)C(c3ccoc3)OC(=O)C3OC321 (centres undefined)" observation_type="normalized growth" reported_value=1.02
compound="NS(=O)(=O)c1cc2c(cc1Cl)NC(C(Cl)Cl)NS2(=O)=O (centres undefined)" observation_type="normalized growth" reported_value=1
compound=CCOC(=O)[C@H](CCc1ccccc1)N[C@@H](C)C(=O)N1[C@H](C(=O)O)C[C@@H]2CCC[C@@H]21 observation_type="normalized growth" reported_value=1.02
compound=Oc1ccc(Cl)cc1Cc1cc(Cl)ccc1O observation_type="normalized growth" reported_value=0.101
compound=COc1cc(-c2coc3cc(OCc4ccccc4)c(OC)c(O)c3c2=O)cc(OCc2ccccc2)c1OC observation_type="normalized growth" reported_value=0.992
compound=COc1cc(-c2coc3cc(OC)c(OC)c(OC)c3c2=O)cc(OC)c1OC observation_type="normalized growth" reported_value=0.988
compound="C=C1CCC(OC(C)=O)/C(C)=C/C[C@@H]2[C@@H]1CC2(C)C (some centres undefined)" observation_type="normalized growth" reported_value=1.01
compound="C[N+]1(C)C2CC(OC(=O)[C@@H](CO)c3ccccc3)CC1C1OC12 (some centres undefined)" observation_type="normalized growth" reported_value=1
compound=CCCCOC(=O)c1ccccc1C(=O)OCc1ccccc1 observation_type="normalized growth" reported_value=0.964
compound="CC1(C)C2(Cl)C(Cl)C(Cl)C(Cl)(C(Cl)Cl)C1(Cl)C2Cl (centres undefined)" observation_type="normalized growth" reported_value=0.971
compound=O=C(Cn1ccnc1[N+](=O)[O-])NCCO observation_type="normalized growth" reported_value=1.02

====

Listed here: items and their measured normalized growth.
- procedure_text: chemical genetic growth profiling, strain panel (AID 1159580);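 also: tested at 20 µM; growth read once vehicle control cultures reached saturation at 30 °C; 1 = growth at the plate median or of vehicle wells; lower values mean less growth of the strain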
- applied_conditions: S. cerevisiae deletion strains, growth OD, locus YFR010W, strain ubp6, active compounds read low
Counter-ions that a name gives are not always drawn. In all, about 5,500 compounds went through this assay and about 2,000 (36%) were called active. Another 18% or so got no clear call; they are omitted. The list shows a part of the results. Where a SMILES comes first, the peptide text is derived from it. The star is where a group is joined. Tfa = O=C(C(F)(F)F)*
observation_type: normalized growth

compound=O=C1NC(=O)C(=O)C(=O)N1 reported_value=0.974
compound="CC(C)C(NC(=O)C(Cc1ccc(O)cc1)NC(=O)C(NC(=O)C(F)(F)F)C(C)C)C(=O)O (stereo not drawn) (Tfa-Val-Tyr-Val-OH; configuration not given here)" reported_value=0.997
compound="C=CCSCC1Nc2cc(Cl)c(S(N)(=O)=O)cc2S(=O)(=O)N1 (stereo not drawn)" reported_value=1.01

====

- procedure_text: chemical genetic growth profiling, strain panel (AID 1159580);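 also: tested at 20 µM; growth read once vehicle control cultures reached saturation at 30 °C; 1 = growth at the plate median or of vehicle wells; lower values mean less growth of the strain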
- applied_conditions: S. cerevisiae deletion strains, growth OD, locus YGL248W, strain PDE1, active compounds read low
The campaign covered roughly 5,500 compounds. About 2,000 (36%) were called active. Another 18% or so got no clear call; they are omitted. The list shows a part of the results.
Listed here: items and their measured normalized growth.
observation_type: normalized growth

molecule="COc1cc2c(cc1OC)C1Cc3ccc(OC)c(OC)c3CN1CC2 (centres undefined)" reported_value=1.03
molecule=Cc1cccc(C)c1NC1=NCCCS1 reported_value=1.01
molecule=CC(C)NNC(=O)c1ccncc1 reported_value=0.996
molecule=Clc1cccc(Cl)c1NC1=NCCN1 reported_value=1.03
molecule="CCCC(=O)O[C@]1(C(=O)CO)CCC2[C@@H]3CCC4=CC(=O)CC[C@]4(C)C3[C@@H](O)C[C@@]21C (some centres undefined)" reported_value=1.02
molecule="C#CCCCCCCCCCCCC(O)CC(O)COC(C)=O (centres undefined)" reported_value=0.976
molecule=COc1ccc(CCN2CCC(Nc3nc4ccccc4n3Cc3ccc(F)cc3)CC2)cc1 reported_value=0.985
molecule=Cn1c(=O)c2[nH]cnc2n(C)c1=O reported_value=0.99
molecule=Cc1cc(NC(=O)C2=C(O)c3ccccc3S(=O)(=O)N2C)no1 reported_value=0.994
molecule="C=CCCCCCCCCCCCC(O)CC(O)COC(C)=O (centres undefined) (tested in a mixture with another compound)" reported_value=0.89
molecule=Oc1ccc(Cl)cc1 reported_value=0.991
molecule="CC(=O)OC1CCC2(C)C(=CC=C3C2CCC2(C)C3CCC2C(C)/C=C/C(C)C(C)C)C1(C)C (centres undefined)" reported_value=1.01
molecule=OCc1ccccc1O reported_value=1.02
molecule="CC(C)COCC(CN(Cc1ccccc1)c1ccccc1)N1CCCC1 (centres undefined)" reported_value=0.849
molecule=COC(=O)C1=CCCN(C)C1 reported_value=0.978
molecule=COc1ccc2c(c1)O[C@H]1c3ccc(OC)cc3OC[C@@H]21 reported_value=0.863
molecule=CN1C(C(=O)Nc2ccccn2)=C(O)c2ccccc2S1(=O)=O reported_value=0.984
molecule=CCC(C)(C)C(=O)O[C@H]1C[C@@H](C)C=C2C=C[C@H](C)[C@H](CC[C@@H]3C[C@@H](O)CC(=O)O3)[C@H]21 reported_value=1.01
molecule="CC1(C)C2(Cl)C(Cl)C(Cl)C(Cl)(C(Cl)Cl)C1(Cl)C2Cl (centres undefined)" reported_value=0.979

====

- procedure_text: chemical genetic growth profiling, strain panel (AID 1159580);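 also: tested at 20 µM; growth read once vehicle control cultures reached saturation at 30 °C; 1 = growth at the plate median or of vehicle wells; lower values mean less growth of the strain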
- applied_conditions: S. cerevisiae deletion strains, growth OD, locus YDR137W, strain rgp1
Out of some 5,500 compounds screened, about 2,000 (36%) were called active. Not shown: some 18% with an inconclusive outcome. Cut-off read from the data, not from the text of the source: active = normalized growth mostly below about 0.91 (no sharp cut-off); inconclusive = no clear call, values can overlap the other calls; inactive = mostly above about 0.92. This is one part of the list.
Outcome codes: True for active, False for inactive

compound=O=C(Cn1ccnc1[N+](=O)[O-])NCCO label_value=False
compound=COc1ccc2c(c1)O[C@H]1c3ccc(OC)cc3OC[C@@H]21 label_value=False
compound=O=c1[nH]oc2c1CCNC2 label_value=False
compound=COc1ccc([C@H]2Oc3cc(OC)cc(OC)c3C[C@H]2O)cc1 label_value=False
compound="CO/N=C(\\C(=O)NC1C(=O)N2C(C(=O)OC(C)OC(C)=O)=C(COC(N)=O)CSC12)c1ccco1 (configuration not stated)" label_value=False
compound="CC(C)C(C)/C=C/C(C)[C@H]1CCC2C3=CCC4CC(=O)CC[C@]4(C)C3CC[C@@]21C (some centres not stated)" label_value=False
compound="C=C1CCC2C(CC2(C)C)C(=C)CC/C1=N\\O (configuration not stated)" label_value=False
compound=Oc1ccc(Cl)cc1 label_value=False
compound=Cc1c(S(=O)(=O)O)oc2c1C(=O)C(=O)c1c-2ccc2c1CCCC2(C)C label_value=True
compound="O=C(C1CCCCC1)N1CC(=O)N2CCc3ccccc3C2C1 (configuration not stated)" label_value=False
compound="C[N+]1(C)C2CC(OC(=O)[C@@H](CO)c3ccccc3)CC1C1OC12 (some centres not stated)" label_value=False
compound=Cc1cc(-c2ccccc2)nnc1NCCN1CCOCC1 label_value=False
compound=CC(C)(C)CC(C)(C)c1ccc(O)c(Cc2ccc(Cl)cc2Cl)c1 label_value=False
compound=COc1cc2occ(-c3ccccc3)c(=O)c2c(OC)c1C label_value=True
compound="NC(CO)C(=O)NNCc1ccc(O)c(O)c1O (configuration not stated)" label_value=False
compound=COc1ccc(CCN2CCC(Nc3nc4ccccc4n3Cc3ccc(F)cc3)CC2)cc1 label_value=True
compound=CCCCC(=O)Oc1ccccc1C(=O)O label_value=False
compound="CO[C@@]1(NC(=O)CSCC#N)C(=O)N2C(C(=O)O)=C(CSc3nnnn3C)CSC21 (some centres not stated)" label_value=False
compound=Oc1ccc(Cl)cc1Cc1cc(Cl)ccc1O label_value=True
compound="C=C1CCC2C(CC2(C)C)C(=O)CCC1O (configuration not stated)" label_value=False
compound=Cn1c(=O)c2[nH]cnc2n(C)c1=O label_value=False
compound="C=C1CCC(C2CC(=O)OC2=O)C(=O)CCC2C1CC2(C)C (configuration not stated)" label_value=False
compound="CCCC(=O)O[C@]1(C(=O)CO)CCC2[C@@H]3CCC4=CC(=O)CC[C@]4(C)C3[C@@H](O)C[C@@]21C (some centres not stated)" label_value=False
compound=NC(N)=NS(=O)(=O)c1ccc(N)cc1 label_value=False
compound="CCCCN1CCCCC1C(=O)Nc1c(C)cccc1C (configuration not stated)" label_value=False
compound="CC(=O)OC1CCC2(C)C(=CC=C3C2CCC2(C)C3CCC2C(C)/C=C/C(C)C(C)C)C1(C)C (configuration not stated)" label_value=False
compound=CCN(CC)CCOC(=O)c1ccc(N)cc1 label_value=False
compound=CC(C)NNC(=O)c1ccncc1 label_value=False
compound=C[C@H]1CC[C@@H](C(C)(C)O)CC2=C1CC[C@@H]2C label_value=False
compound=Cc1ccc(C)c(OCCCC(C)(C)C(=O)O)c1 label_value=True
compound=COc1ccc(-c2coc3cc(OC)cc(OC)c3c2=O)cc1 label_value=False
compound=COC(=O)C[C@H]1C(C)(C)C(=O)[C@@H]2CC3=C(CC[C@]4(C)C3=CC(=O)O[C@H]4c3ccoc3)[C@@]1(C)C2=O label_value=False
compound="CC(C)C(C)/C=C/C(C)C1CCC2C3=CC=C4CC(O)CCC4(C)C3CCC21C (configuration not stated)" label_value=True
compound="CC(C(=O)O)c1ccc(C(=O)c2cccs2)cc1 (configuration not stated)" label_value=False
compound=Clc1cccc(Cl)c1NC1=NCCN1 label_value=False
compound=O=C(O)CN1C(=O)c2cccc3cccc(c23)C1=O label_value=False
compound=CO/N=C(\C(=O)N[C@@H]1C(=O)N2C(C(=O)O)=C(COC(C)=O)CS[C@H]12)c1csc(N)n1 label_value=False

Data origin, for the record: PubChem BioAssay AID1159580
